Target: T1, Peptide B (human PAR-2), C-terminal biotinylated (Human, not fully specified)
T1 construct: also called Peptide B C-Term
T1 peptide: SLIGKVDGTSHVTGGGGGS-biotin
Assay: SPR, peptide immobilized
Procedure: In another series of experiments, equilibrium dissociation constants (KD values) for purified antibody binding to selected biotinylated and unbiotinylated forms of PAR-2 peptides were determined by surface kinetics using a real-time surface plasmon resonance biosensor assay. Neutravidin (Pierce, Rockford, Ill.) was covalently coupled to the surface of a Biacore™ C1 chip or CM5 chip using amine coupling chemistry. […]
Where no end group is shown, it is not given here.

[
  {
    "BINDER": "H4H588N (antibody, human IgG4, V domains shown, also called H2M588N variable regions) VH: EVQLLESGGGLVQPGGSLRLSCAASGFTFSSYAMTWVRQAPGKGLYWVSAISGGRGSAYYADSVKGRFTISRDNSKNTLYLQMNSLRAEDTAVYYCAKEGDSGYDLAYWGRGTLVTVSS VL: DIQMTQSPSSLSASVGDRVTITCRARQGISNNLAWLQQKPGKAPKSLIYAASSLQSGIPSKFSGSGSGTYFTLTISSLQPEDFATYYCQQYKSSPLTFGGGTKVEIK",
    "Kd": "1.03 nM"
  }
]
